Target: Mu-type opioid receptor (Cavia porcellus, UniProt P97266)
Sequence (P97266 whole entry): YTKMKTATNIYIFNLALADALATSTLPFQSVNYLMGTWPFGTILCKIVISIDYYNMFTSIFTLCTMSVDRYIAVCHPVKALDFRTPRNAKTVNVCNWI
Test: Binding affinity was evaluated by measuring the ability to displace [3H]DAMGO radioligand binding from Opioid receptor mu 1 in guinea pig brain membranes
Assay type: cell membranes, Membrane
experimentalReadout: Ki (nM)

[[record]]
molecule = "CCO[C@@]12CCC(=O)CC13CCN(CC1CC1)C2Cc1ccc(O)c(OC)c13 (some centres undefined)"
targetortestsystem = "Mu-type opioid receptor (Cavia porcellus, UniProt P97266)"
endpointunit = "nM"
val = 1.42

[[record]]
molecule = "COc1c(O)ccc2c1C13CCN(CC4CC4)C(C2)[C@]1(OC)CCC(=O)C3 (some centres undefined)"
targetortestsystem = "Mu-type opioid receptor (Cavia porcellus, UniProt P97266)"
endpointunit = "nM"
val = 6.15

[[record]]
molecule = "COc1cccc2c1[C@]13CCN(CC4CC4)[C@H](C2)[C@]1(OC)CCC(=O)C3"
targetortestsystem = "Mu-type opioid receptor (Cavia porcellus, UniProt P97266)"
endpointunit = "nM"
val = 23.7

[[record]]
molecule = "C=CCN1CCC23CC(=O)CC[C@@]2(OC)C1Cc1ccc(O)c(OC)c13 (some centres undefined)"
targetortestsystem = "Mu-type opioid receptor (Cavia porcellus, UniProt P97266)"
endpointunit = "nM"
val = 7.29


---

Target: Kappa-type opioid receptor (Cavia porcellus)
Experiment: Binding affinity was evaluated by measuring the ability to displace [3H]U-69593 radioligand binding from Opioid receptor kappa 1 in guinea pig brain membranes
Assay type: cell membranes, Membrane
experimentalReadout: Ki (µM)

[[record]]
molecule = "COc1c(O)ccc2c1C13CCN(CC4CC4)C(C2)[C@]1(O)CCC(=O)C3 (stereo partly drawn)"
experimentalreadout = "Ki"
endpointunit = "µM"
val = 0.023

[[record]]
molecule = "COc1c(O)ccc2c1C13CCN(CC4CC4)C(C2)[C@]1(OC)CCC(=O)C3 (stereo partly drawn)"
experimentalreadout = "Ki"
endpointunit = "µM"
val = 0.00418

[[record]]
molecule = "CCCCOc1c(O)ccc2c1C13CCN(CC4CC4)C(C2)[C@]1(OC)CCC(=O)C3 (stereo partly drawn)"
experimentalreadout = "Ki"
endpointunit = "µM"
val = 0.013


---

Molecular target: Mu-type opioid receptor (Cavia porcellus)
Test: […] binding affinity was evaluated by measuring the ability to displace [3H]DAMGO radioligand binding from Opioid receptor mu 1 in guinea pig brain membranes
Design: species or system Membrane
pKi: −log10 of the molar value.
experimentalReadout: pKi

[[record]]
compound = "COc1c(O)ccc2c1C13CCN(CC4CC4)C(C2)[C@]1(O)CCC(=O)C3 (some centres not stated)"
targetortestsystem = "Mu-type opioid receptor (Cavia porcellus)"
experimentalreadout = "pKi"
val = 7.26

[[record]]
compound = "CCCCOc1c(O)ccc2c1C13CCN(CC4CC4)C(C2)[C@]1(OC)CCC(=O)C3 (some centres not stated)"
targetortestsystem = "Mu-type opioid receptor (Cavia porcellus)"
experimentalreadout = "pKi"
val = 7.96


---

Molecular target: UniProt:P42866
Sequence (P42866 whole entry): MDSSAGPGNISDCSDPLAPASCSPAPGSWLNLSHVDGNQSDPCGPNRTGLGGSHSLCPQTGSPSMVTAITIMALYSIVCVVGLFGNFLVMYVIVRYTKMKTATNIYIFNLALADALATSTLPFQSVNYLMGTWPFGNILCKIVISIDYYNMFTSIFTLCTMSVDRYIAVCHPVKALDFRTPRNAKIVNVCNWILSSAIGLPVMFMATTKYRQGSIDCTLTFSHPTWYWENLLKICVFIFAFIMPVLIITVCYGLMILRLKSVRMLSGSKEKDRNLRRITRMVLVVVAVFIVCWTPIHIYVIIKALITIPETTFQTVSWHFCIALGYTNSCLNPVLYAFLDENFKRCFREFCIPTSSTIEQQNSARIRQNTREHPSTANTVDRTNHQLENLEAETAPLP
Assay: Binding affinity was evaluated by measuring the ability to displace [3H]-DAMGO radioligand binding from Opioid receptor mu 1 in mouse vas deferens preparation
experimentalReadout: Ke

[[record]]
compound = "CCO[C@@]12CCC(=O)CC13CCN(CC1CC1)C2Cc1ccc(O)c(OC)c13 (some centres undefined)"
experimentalreadout = "Ke"
val = "2.92 nM"

[[record]]
compound = "COc1c(O)ccc2c1C13CCN(CC4CC4)C(C2)[C@]1(O)CCC(=O)C3 (some centres undefined)"
experimentalreadout = "Ke"
val = "93.8 nM"

[[record]]
compound = "CCCCOc1c(O)ccc2c1C13CCN(CC4CC4)C(C2)[C@]1(OC)CCC(=O)C3 (some centres undefined)"
experimentalreadout = "Ke"
val = "24.9 nM"

[[record]]
compound = "C=CCN1CCC23CC(=O)CC[C@@]2(OC)C1Cc1ccc(O)c(OC)c13 (some centres undefined)"
experimentalreadout = "Ke"
val = "4.6 nM"


---

The following compounds are shown together with reported pKi values.
Target: Kappa-type opioid receptor (Cavia porcellus, UniProt P41144)
Sequence (P41144 whole entry): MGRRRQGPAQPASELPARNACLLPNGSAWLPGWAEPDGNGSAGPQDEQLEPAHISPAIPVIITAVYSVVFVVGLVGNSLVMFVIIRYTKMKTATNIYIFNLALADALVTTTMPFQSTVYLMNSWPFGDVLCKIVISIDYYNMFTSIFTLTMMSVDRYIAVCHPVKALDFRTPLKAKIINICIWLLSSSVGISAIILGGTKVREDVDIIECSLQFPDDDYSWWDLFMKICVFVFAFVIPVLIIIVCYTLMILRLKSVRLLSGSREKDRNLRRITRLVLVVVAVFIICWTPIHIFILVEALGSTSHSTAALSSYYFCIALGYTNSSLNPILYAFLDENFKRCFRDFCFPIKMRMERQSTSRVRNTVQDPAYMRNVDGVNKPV
Test: […] binding affinity was evaluated by measuring the ability to displace [3H]U-69593 radioligand binding from Opioid receptor kappa 1 in guinea pig brain membranes
Design: species or system Membrane
pKi: −log10 of the molar value.
experimentalReadout: pKi

[[record]]
compound = "COc1cccc2c1[C@]13CCN(CC4CC4)[C@H](C2)[C@]1(OC)CCC(=O)C3 [CYPRODIME]"
experimentalreadout = "pKi"
val = 6.98

[[record]]
compound = "C=CCN1CCC23CC(=O)CC[C@@]2(OC)C1Cc1ccc(O)c(OC)c13 (stereo partly drawn)"
experimentalreadout = "pKi"
val = 7.60

[[record]]
compound = "CCO[C@@]12CCC(=O)CC13CCN(CC1CC1)C2Cc1ccc(O)c(OC)c13 (stereo partly drawn)"
experimentalreadout = "pKi"
val = 8.26


---

The following compounds are shown together with reported Ke values.
Molecular target: Kappa-type opioid receptor (Mus musculus) (UniProt P33534)
Sequence (P33534 whole entry): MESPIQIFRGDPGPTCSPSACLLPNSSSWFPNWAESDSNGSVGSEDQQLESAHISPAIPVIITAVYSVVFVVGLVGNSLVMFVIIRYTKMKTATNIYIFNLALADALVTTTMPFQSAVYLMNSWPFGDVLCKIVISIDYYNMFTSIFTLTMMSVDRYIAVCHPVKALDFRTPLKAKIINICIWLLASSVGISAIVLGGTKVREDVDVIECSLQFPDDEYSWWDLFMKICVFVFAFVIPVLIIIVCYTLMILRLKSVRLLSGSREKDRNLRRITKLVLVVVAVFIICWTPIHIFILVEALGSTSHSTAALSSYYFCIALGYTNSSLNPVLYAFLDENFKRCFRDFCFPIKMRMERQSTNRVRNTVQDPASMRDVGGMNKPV
Experiment: Binding affinity was evaluated by measuring the ability to displace CI977 radioligand binding from Opioid receptor kappa 1 in mouse vas deferens preparation
experimentalReadout: Ke

[[record]]
compound = "C=CCN1CCC23CC(=O)CC[C@@]2(OC)C1Cc1ccc(O)c(OC)c13 (some centres undefined)"
val = "4.67 nM"

[[record]]
compound = "CCCCOc1c(O)ccc2c1C13CCN(CC4CC4)C(C2)[C@]1(OC)CCC(=O)C3 (some centres undefined)"
val = "174 nM"

[[record]]
compound = "CCO[C@@]12CCC(=O)CC13CCN(CC1CC1)C2Cc1ccc(O)c(OC)c13 (some centres undefined)"
val = "233 nM"

[[record]]
compound = "COc1c(O)ccc2c1C13CCN(CC4CC4)C(C2)[C@]1(O)CCC(=O)C3 (some centres undefined)"
val = "243 nM"


---

The following compounds are shown together with reported Ke values.
Biological target: Delta-type opioid receptor (Mus musculus)
Assay: Binding affinity was evaluated by measuring the ability to displace DPDPE radioligand binding from delta opioid receptor in mouse vas deferens preparation
experimentalReadout: Ke (nM)

[[record]]
compound = "COc1c(O)ccc2c1C13CCN(CC4CC4)C(C2)[C@]1(O)CCC(=O)C3 (some centres undefined)"
targetortestsystem = "Delta-type opioid receptor (Mus musculus)"
cmp = "="
val = 8920

[[record]]
compound = "CCCCOc1c(O)ccc2c1C13CCN(CC4CC4)C(C2)[C@]1(OC)CCC(=O)C3 (some centres undefined)"
targetortestsystem = "Delta-type opioid receptor (Mus musculus)"
cmp = ">"
val = 10000

[[record]]
compound = "CCO[C@@]12CCC(=O)CC13CCN(CC1CC1)C2Cc1ccc(O)c(OC)c13 (some centres undefined)"
targetortestsystem = "Delta-type opioid receptor (Mus musculus)"
cmp = "="
val = 106

[[record]]
compound = "C=CCN1CCC23CC(=O)CC[C@@]2(OC)C1Cc1ccc(O)c(OC)c13 (some centres undefined)"
targetortestsystem = "Delta-type opioid receptor (Mus musculus)"
cmp = "="
val = 2270

